- Test system: Leishmania donovani promastigotes
- procedure details: Leishmanicidal activity against promastigotes (alamarBlue assay)
- Type: cell-based
- run parameters: Leishmania donovani, 72 h, read-out: inhibitory concentration 50 (IC50), promastigote stage, L. donovani
pIC50: −log10 of the molar value.
quantity: pIC50

# compound, assay result
rows = [
    ("CCCCCCCCCCCCCCCCOP(=O)([O-])OCC[N+](C)(C)C [Miltefosine]", 4.14),
]
